Hey, just so you know, these numbers are from ChEMBL document CHEMBL1909046.

Target: Cytochrome P450 1A2 (Homo sapiens, UniProt P05177); also: in other assays of this panel Not Active means under 50% inhibition at 10 µM
Sequence (P05177 whole entry): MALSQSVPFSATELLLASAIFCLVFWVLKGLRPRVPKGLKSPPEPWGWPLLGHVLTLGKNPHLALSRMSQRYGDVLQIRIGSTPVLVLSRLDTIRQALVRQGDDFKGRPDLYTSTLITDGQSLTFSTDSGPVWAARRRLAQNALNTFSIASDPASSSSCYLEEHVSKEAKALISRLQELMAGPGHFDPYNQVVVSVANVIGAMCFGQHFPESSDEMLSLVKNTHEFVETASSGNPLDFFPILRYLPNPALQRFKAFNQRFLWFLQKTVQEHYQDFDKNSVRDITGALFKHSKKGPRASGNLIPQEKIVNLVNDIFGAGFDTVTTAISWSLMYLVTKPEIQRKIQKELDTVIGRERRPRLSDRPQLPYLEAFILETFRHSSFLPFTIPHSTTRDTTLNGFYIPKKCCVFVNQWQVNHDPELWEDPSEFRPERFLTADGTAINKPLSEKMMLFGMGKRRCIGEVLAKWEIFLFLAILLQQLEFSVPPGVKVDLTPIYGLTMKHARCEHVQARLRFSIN
Conditions: bti-tn-5b1-4
Endpoint label: IC50

Task: Find the recorded IC50 belonging to CC[C@H](C)[C@@H](CO[C@@H](Cc1ccccc1)C(=O)N[C@@H](CCS(C)(=O)=O)C(=O)OC(C)C)NC[C@@H](N)CS and report it.
Output: Not Active

Task: Find the recorded IC50 belonging to C[C@H]1C[C@H]2[C@@H]3CCC4=CC(=O)C=C[C@]4(C)[C@@]3(F)[C@@H](O)C[C@]2(C)[C@@]1(O)C(=O)CO and report it.
Output: Not Active

Task: Find the recorded IC50 belonging to C=CCN1CC[C@]23c4c5ccc(O)c4O[C@H]2/C(=N/N=C2\CC[C@@]4(O)[C@H]6Cc7ccc(O)c8c7[C@@]4(CCN6CC=C)[C@H]2O8)CC[C@@]3(O)[C@H]1C5 and report it.
Output: Not Active

----------
target: UniProtKB P37288; type: cell membranes, Membrane; details: hek293
Sequence (P37288 whole entry): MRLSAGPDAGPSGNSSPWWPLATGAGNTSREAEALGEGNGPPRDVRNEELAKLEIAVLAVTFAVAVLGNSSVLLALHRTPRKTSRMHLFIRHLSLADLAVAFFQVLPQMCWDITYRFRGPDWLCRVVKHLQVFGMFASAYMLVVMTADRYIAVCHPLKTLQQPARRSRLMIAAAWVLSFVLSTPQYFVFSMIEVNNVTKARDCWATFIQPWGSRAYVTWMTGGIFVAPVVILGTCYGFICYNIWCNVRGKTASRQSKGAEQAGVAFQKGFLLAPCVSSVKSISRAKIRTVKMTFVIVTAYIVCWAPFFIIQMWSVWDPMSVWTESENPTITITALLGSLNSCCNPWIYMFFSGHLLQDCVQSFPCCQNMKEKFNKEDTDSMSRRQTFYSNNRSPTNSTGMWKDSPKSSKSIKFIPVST
Endpoint label: IC50

Task: Find the recorded IC50 belonging to OC[C@H]1O[C@@H]2O[C@H]3[C@H](O)[C@@H](O)[C@@H](O[C@H]4[C@H](O)[C@@H](O)[C@@H](O[C@H]5[C@H](O)[C@@H](O)[C@@H](O[C@H]6[C@H](O)[C@@H](O)[C@@H](O[C@H]7[C@H](O)[C@@H](O)[C@@H](O[C@H]1[C@H](O)[C@H]2O)O[C@@H]7CO)O[C@@H]6CO)O[C@@H]5CO)O[C@@H]4CO)O[C@@H]3CO [ALFADEX] and report it.
Output: Not Active

Task: Find the recorded IC50 belonging to O=C(Nc1ccc(Cl)c(Cl)c1)c1cc(Cl)cc(Cl)c1O [3,3',4',5-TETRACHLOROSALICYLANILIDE] and report it.
Output: Not Active

----------
// pIC50 lookup, one value per entry
molecular target: Beta-3 adrenergic receptor (Homo sapiens); assay: DRUGMATRIX: Adrenergic beta3 radioligand binding (ligand: [125I] Cyanopindolol); assay type: cell membranes, HEK293, Membrane; details: Not Active = under 50% inhibition at 10 µM; read-out: IC50
Sequence (P13945 whole entry): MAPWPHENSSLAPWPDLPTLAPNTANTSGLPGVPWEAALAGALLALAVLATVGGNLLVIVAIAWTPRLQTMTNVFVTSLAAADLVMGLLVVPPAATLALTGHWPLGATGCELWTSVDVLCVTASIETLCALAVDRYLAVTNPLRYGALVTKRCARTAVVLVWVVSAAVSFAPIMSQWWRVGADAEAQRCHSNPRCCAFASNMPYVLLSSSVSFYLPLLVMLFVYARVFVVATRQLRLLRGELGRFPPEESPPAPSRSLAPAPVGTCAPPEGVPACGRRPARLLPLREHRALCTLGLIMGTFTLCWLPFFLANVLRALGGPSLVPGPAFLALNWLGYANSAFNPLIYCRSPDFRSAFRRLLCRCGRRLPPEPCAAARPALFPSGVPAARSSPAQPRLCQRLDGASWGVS
Please note pIC50 is a logarithmic value: minus log10 of concentration in mol/L. Answer with that number alone.

Consider the following illustrative entries.
Task: Find the recorded pIC50 belonging to CN(CCOc1ccc(C[C@H](Nc2ccccc2C(=O)c2ccccc2)C(=O)O)cc1)c1ccccn1 and report it.
Output: 4.66

Task: Find the recorded pIC50 belonging to CC1(COc2ccc(CC3SC(=O)NC3=O)cc2)CCCCC1 (stereo not drawn) and report it.
Output: 4.75

// moving on: another record for pIC50
Task: Find the recorded pIC50 belonging to CC(C)(C)NC[C@H](O)COc1cccc2c1CCCC2=O and report it.
Output: 6.47
